Entries with reported MIC on Prot.vulgaris
Answer with the number, then the unit.

These solved cases illustrate the format of a correct answer.
>>> df
                                   compound  reported_result
0  COc1cccc(C2(C(=O)NC3C(=O)N4C3SC(C)(C)C4C(=O)O)CCCC2)c1 (stereo not drawn)        125 µg/mL
1  CCCOc1cccc(C2(C(=O)NC3C(=O)N4C3SC(C)(C)C4C(=O)O)CCCC2)c1 (stereo not drawn)        125 µg/mL
2  CC(C)Oc1ccccc1C1(C(=O)NC2C(=O)N3C2SC(C)(C)C3C(=O)O)CCCC1 (stereo not drawn)        500 µg/mL
3  CCOc1cccc(C2(C(=O)NC3C(=O)N4C3SC(C)(C)C4C(=O)O)CCCC2)c1 (stereo not drawn)        250 µg/mL
4  COc1ccc(C2(C(=O)NC3C(=O)N4C3SC(C)(C)C4C(=O)O)CCCC2)cc1 (stereo not drawn)       62.5 µg/mL

Which value of MIC has been reported for COc1ccccc1C1(C(=O)NC2C(=O)N3C2SC(C)(C)C3C(=O)O)CCCC1 (stereo not drawn) in the records?
500 µg/mL

* * *

Reported half-life values follow for various compounds
Test: Acid resistance (half-life period)
Type: physicochemical
Details: acid ph 1.3; Temperature 37° C, pH 1.3; Table 1, cyclopentyl series; read-out: τ1/2 half-life period (acid resistance)
Write down the numeric answer in h and omit the unit.

                                   compound  endpoint_label  units_of_measure  reported_result
0  COc1ccc(C2(C(=O)NC3C(=O)N4C3SC(C)(C)C4C(=O)O)CCCC2)cc1 (centres unmarked)       half-life                 h             2.72
1  CC(C)Oc1ccccc1C1(C(=O)NC2C(=O)N3C2SC(C)(C)C3C(=O)O)CCCC1 (centres unmarked)       half-life                 h            0.172
2  CCCCOc1ccc(C2(C(=O)NC3C(=O)N4C3SC(C)(C)C4C(=O)O)CCCC2)cc1 (centres unmarked)       half-life                 h             0.72
3  CC(C)Oc1cccc(C2(C(=O)NC3C(=O)N4C3SC(C)(C)C4C(=O)O)CCCC2)c1 (centres unmarked)       half-life                 h            0.432
4  CCOc1ccccc1C1(C(=O)NC2C(=O)N3C2SC(C)(C)C3C(=O)O)CCCC1 (centres unmarked)       half-life                 h              1.7
5  CC(C)Oc1ccc(C2(C(=O)NC3C(=O)N4C3SC(C)(C)C4C(=O)O)CCCC2)cc1 (centres unmarked)       half-life                 h             2.67
6  CCCOc1cccc(C2(C(=O)NC3C(=O)N4C3SC(C)(C)C4C(=O)O)CCCC2)c1 (centres unmarked)       half-life                 h              3.7

Proceeding to the next compound to report its half-life.
Which value of half-life has been reported for CCOc1cccc(C2(C(=O)NC3C(=O)N4C3SC(C)(C)C4C(=O)O)CCCC2)c1 (centres unmarked) in the records?
3.16

* * *

Assay: in vivo
Settings: mouse, iv
endpoint label: MTD (mg/kg)
Write down the numeric answer in mg/kg and omit the unit.

These solved cases illustrate the format of a correct answer.
>>> print(df.to_string())
                                   molecule  units_of_measure  reported_result
0  COc1cccc(C2(C(=O)NC3C(=O)N4C3SC(C)(C)C4C(=O)O)CCCC2)c1 (stereo not shown)             mg/kg             2500
1  COc1ccccc1C1(C(=O)NC2C(=O)N3C2SC(C)(C)C3C(=O)O)CCCC1 (stereo not shown)             mg/kg             2000

Which value of MTD has been reported for CC(C)Oc1ccccc1C1(C(=O)N[C@@H]2C(=O)N3[C@@H]2SC(C)(C)[C@@H]3C(=O)O)CCC1 in the records?
250

Thanks! And CCOc1ccccc1C1(C(=O)NC2C(=O)N3C2SC(C)(C)C3C(=O)O)CC1 (stereo not shown) ?
500

Thanks! And CCCOc1ccccc1C1(C(=O)NC2C(=O)N3C2SC(C)(C)C3C(=O)O)CCCC1 (stereo not shown) ?
1500

Thanks! And CCCCOc1ccccc1C1(C(=O)N[C@@H]2C(=O)N3[C@@H]2SC(C)(C)[C@@H]3C(=O)O)CCC1 ?
1000

Thanks! And CCOc1cccc(C2(C(=O)N[C@@H]3C(=O)N4[C@@H]3SC(C)(C)[C@@H]4C(=O)O)CCC2)c1 ?
1500

Thanks! And CC(C)Oc1cccc(C2(C(=O)NC3C(=O)N4C3SC(C)(C)C4C(=O)O)CCCC2)c1 (stereo not shown) ?
1500

* * *

Test: in vivo
Settings: mouse, iv
endpoint label: MTD (mg/kg)
Write down the numeric answer in mg/kg and omit the unit.

These solved cases illustrate the format of a correct answer.
>>> print(df.to_string())
                                   compound  units_of_measure  reported_result
0  CCCCOc1cccc(C2(C(=O)N[C@@H]3C(=O)N4[C@@H]3SC(C)(C)[C@@H]4C(=O)O)CCC2)c1             mg/kg             1000
1  CCOc1cccc(C2(C(=O)NC3C(=O)N4C3SC(C)(C)C4C(=O)O)CCCC2)c1 (centres unmarked)             mg/kg             1500
2  CCCCOc1ccccc1C1(C(=O)NC2C(=O)N3C2SC(C)(C)C3C(=O)O)CC1 (centres unmarked)             mg/kg              500
3  COc1ccccc1C1(C(=O)NC2C(=O)N3C2SC(C)(C)C3C(=O)O)CC1 (centres unmarked)             mg/kg             2000
4  CCOc1ccc(C2(C(=O)N[C@@H]3C(=O)N4[C@@H]3SC(C)(C)[C@@H]4C(=O)O)CC2)cc1             mg/kg             2750

Which value of MTD has been reported for CC(C)Oc1cccc(C2(C(=O)N[C@@H]3C(=O)N4[C@@H]3SC(C)(C)[C@@H]4C(=O)O)CCC2)c1 in the records?
500

Thanks! And CCCOc1ccc(C2(C(=O)NC3C(=O)N4C3SC(C)(C)C4C(=O)O)CCCC2)cc1 (centres unmarked) ?
1500

Thanks! And CCCCOc1cccc(C2(C(=O)N[C@@H]3C(=O)N4[C@@H]3SC(C)(C)[C@@H]4C(=O)O)CC2)c1 ?
250

Thanks! And CC1(C)SC2C(NC(=O)C3(c4ccccc4)CCCC3)C(=O)N2C1C(=O)O (centres unmarked) ?
500

Thanks! And CC(C)Oc1ccccc1C1(C(=O)NC2C(=O)N3C2SC(C)(C)C3C(=O)O)CC1 (centres unmarked) ?
500

Thanks! And COc1cccc(C2(C(=O)NC3C(=O)N4C3SC(C)(C)C4C(=O)O)CC2)c1 (centres unmarked) ?
1500

Thanks! And CCOc1ccccc1C1(C(=O)NC2C(=O)N3C2SC(C)(C)C3C(=O)O)CCCC1 (centres unmarked) ?
1000

Thanks! And CCCCOc1cccc(C2(C(=O)NC3C(=O)N4C3SC(C)(C)C4C(=O)O)CCCC2)c1 (centres unmarked) ?
2000

* * *

Assay: in vivo
Details: mouse, iv
endpoint label: MTD (mg/kg)
Write down the numeric answer in mg/kg and omit the unit.

These solved cases illustrate the format of a correct answer.
>>> df
                                   molecule  endpoint_label  units_of_measure  reported_result
0  CC(C)Oc1ccc(C2(C(=O)NC3C(=O)N4C3SC(C)(C)C4C(=O)O)CCCC2)cc1 (stereo not shown)             MTD             mg/kg             1500
1  CC1(C)SC2C(NC(=O)C3(c4ccccc4)CC3)C(=O)N2C1C(=O)O (stereo not shown)             MTD             mg/kg             1500
2  CCCOc1ccc(C2(C(=O)N[C@@H]3C(=O)N4[C@@H]3SC(C)(C)[C@@H]4C(=O)O)CCC2)cc1             MTD             mg/kg              250

Which value of MTD has been reported for CCCCOc1ccc(C2(C(=O)N[C@@H]3C(=O)N4[C@@H]3SC(C)(C)[C@@H]4C(=O)O)CC2)cc1 in the records?
250
